- Study system: UniProt P09936
- Sequence (P09936 whole entry): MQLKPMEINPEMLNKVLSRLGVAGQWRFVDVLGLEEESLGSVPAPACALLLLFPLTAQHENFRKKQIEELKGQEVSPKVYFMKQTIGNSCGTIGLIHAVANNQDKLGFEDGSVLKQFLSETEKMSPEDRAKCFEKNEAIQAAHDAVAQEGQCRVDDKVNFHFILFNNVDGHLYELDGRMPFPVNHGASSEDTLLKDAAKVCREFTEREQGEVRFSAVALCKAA
- Test name: Time-dependent inhibitor analysis (kinact/KI)
- Format: biochemical
- Set-up: made in house
Where a SMILES comes first, the peptide text is derived from it. The star is where a group is joined. Cbz = O=C(OCc1ccccc1)*; CH2F = FC*
Metric: Ki (µM)

[
  {
    "Compound": "COC(=O)CC[C@H](NC(=O)[C@H](C)NC(=O)[C@@H](NC(=O)OCc1ccccc1)C(C)C)C(=O)CF [Cpd 1] (Cbz-Val-Ala-Glu(OMe)-CH2F)",
    "Experimental result": 60
  }
]

====

- Test name: SW1271 cell viability assay
- Type: cell-based
- Measurement conditions: human, SW1271 small cell lung cancer cells (luciferase-constructed), SW1271 cells
Where a SMILES comes first, the peptide text is derived from it. The star is where a group is joined. Cbz = O=C(OCc1ccccc1)*; CH2Cl = ClC*

[
  {
    "Molecule": "C#Cc1ccc(COC(=O)N[C@H](C(=O)N[C@@H](C)C(=O)N[C@@H](CCC(=O)OC)C(=O)CCl)C(C)C)cc1",
    "Result units": "nM",
    "CC50 at 24 h": 176
  },
  {
    "Molecule": "COC(=O)CC[C@H](NC(=O)[C@H](C)NC(=O)[C@@H](NC(=O)OCc1ccccc1)C(C)C)C(=O)CCl [Cpd 14] (Cbz-Val-Ala-Glu(OMe)-CH2Cl)",
    "Result units": "nM",
    "CC50 at 24 h": 156
  }
]
